Biological target: Serine/threonine-protein kinase PLK1 (Homo sapiens) (UniProt P53350)
Sequence (P53350 whole entry, looked up, the tested form may be a part): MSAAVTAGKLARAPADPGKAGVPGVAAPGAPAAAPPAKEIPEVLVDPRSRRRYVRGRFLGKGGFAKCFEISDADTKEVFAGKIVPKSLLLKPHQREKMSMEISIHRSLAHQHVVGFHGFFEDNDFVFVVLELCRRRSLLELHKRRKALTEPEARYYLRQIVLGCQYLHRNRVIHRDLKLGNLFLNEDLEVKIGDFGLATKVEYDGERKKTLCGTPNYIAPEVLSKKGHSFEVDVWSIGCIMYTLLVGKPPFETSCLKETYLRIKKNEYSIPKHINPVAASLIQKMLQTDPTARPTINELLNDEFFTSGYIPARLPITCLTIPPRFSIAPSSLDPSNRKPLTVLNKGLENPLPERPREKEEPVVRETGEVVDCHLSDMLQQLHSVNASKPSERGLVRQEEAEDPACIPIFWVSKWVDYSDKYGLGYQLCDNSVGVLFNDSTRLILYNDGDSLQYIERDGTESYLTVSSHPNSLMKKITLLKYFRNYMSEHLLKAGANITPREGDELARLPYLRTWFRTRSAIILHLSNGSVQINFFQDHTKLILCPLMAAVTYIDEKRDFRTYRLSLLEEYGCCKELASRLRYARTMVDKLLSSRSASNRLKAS
Test: PLK1 polo-box domain peptide-binding inhibitors, SAR follow-up, biochemical, fluorescence polarization, purchased analogs, concentration response (AID 1083)
Details: Plk1 PBD peptide binding
The source made the active and inactive calls. The rule behind the calls is not given here.
Would you mind telling me the reported IC50 of each entry?

>  <COMPOUND>
CCOC(=O)c1ccc(NC(=O)C2C3C=CC(C3)C2(C)C(=O)O)cc1 (stereo not drawn)

>  <EXPERIMENTAL TARGET>
Serine/threonine-protein kinase PLK1 (Homo sapiens) (UniProt P53350)

>  <IC50>
> 50 µM (inactive)

$$$$
>  <COMPOUND>
Cn1nc(-c2ccc([N+](=O)[O-])cc2)nc2c(=O)n(C)c(=O)nc1-2

>  <EXPERIMENTAL TARGET>
Serine/threonine-protein kinase PLK1 (Homo sapiens) (UniProt P53350)

>  <IC50>
0.375 µM

$$$$

Switching to the query record.
Problem: Quick check: IC50 of CCn1nc(-c2ccccc2Cl)nc2c(=O)n(C)c(=O)nc1-2 ?
Solution: 1.55 µM
